# PROTOCOL_DETAILS: qHTS assay for small molecule disruptors of the mitochondrial membrane potential - cell viability (AID 720634);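 note: human HepG2 liver cancer cells; nearly all actives have a fitted effect of over 20% in size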
# EXPERIMENTAL_CONDITIONS: HepG2 viability, ATP luminescence (CellTiter-Glo), 1 h; series mostly up to 83.2 µM
Results filed as inconclusive are left out. Calls of active or inactive are those of the source. Calls come from the whole dose curve.
READOUT_NAME: activity change, negative = cytotoxicity

INSERT INTO measurements (compound, observed_value) VALUES
  ('CCCCCCCCCCCC(=O)OCC(O)CO (stereo not drawn)', 'inactive'),
  ('CCCCCCCCCCCCCOS(=O)(=O)O', 'inactive'),
  ('CCCCCCCCCCCCCOC(=O)CCSCCC(=O)OCCCCCCCCCCCCC', 'inactive');

---

# PROTOCOL_DETAILS: qHTS assay to identify small molecule antagonists of the sonic hedgehog signaling (Shh) pathway (AID 1259369); note: nearly all actives have a fitted effect of over 45% in size
# EXPERIMENTAL_CONDITIONS: NIH/3T3 Gli1-Luc reporter, Shh antagonist, luminescence 24 h; series mostly up to 92.4 µM
Inconclusive results are not listed. Active and inactive are the calls of the source. Calls come from the whole dose curve.
Select the matching outcome among active, inactive

Illustrative cases are given below, each with its answer.
INSERT INTO results (molecule, class_assignment) VALUES
  ('Cc1ccc2c(c1)CCCN2', 'inactive'),
  ('CCOC(=O)C(C)O (stereo unspecified)', 'inactive'),
  ('CC(C)(C)C(O)/C=C/c1ccc2c(c1)OCO2 (stereo unspecified)', 'inactive'),
  ('CNS(=O)(=O)c1cc(C(=O)N2CCC(CCN3C4CCC3CC(n3c(C)nc5ccccc53)C4)(c3cccc(F)c3)CC2)c(Cl)cc1F (stereo unspecified)', 'active');

QUERY: Which outcome was entered for the molecule `CC(C)OC(=O)c1ccccc1C(=O)OC(C)C` in this test?
RESULT: inactive

QUERY: Which outcome was entered for the molecule `CC(C)(O)CCc1ccccc1` in this test?
RESULT: inactive

QUERY: Which outcome was entered for the molecule `CCOCCC(=O)OCC` in this test?
RESULT: inactive

QUERY: Which outcome was entered for the molecule `O=C(NS(=O)(=O)/C=C/c1ccccc1)c1ccc(F)cc1Cl` in this test?
RESULT: inactive

QUERY: Which outcome was entered for the molecule `COC(C)(C)OC` in this test?
RESULT: inactive

QUERY: Which outcome was entered for the molecule `O=[N+]([O-])c1ccc2ncccc2c1` in this test?
RESULT: inactive

QUERY: Which outcome was entered for the molecule `CC[C@H]1OC(=O)[C@H](C)[C@@H](O[C@H]2C[C@@](C)(OC)[C@@H](O)[C@H](C)O2)[C@H](C)[C@@H](O[C@@H]2O[C@H](C)C[C@H](N(C)C)[C@H]2O)[C@](C)(O)C[C@@H](C)C(=O)[C@H](C)[C@@H](O)[C@]1(C)O` in this test?
RESULT: inactive

---

# PROTOCOL_DETAILS: A CellTox Green Cytotoxicity Assay to monitor cytotoxicity in HepG2 cells - 24 hour (AID 1224878); note: nearly all actives have a fitted effect of over 45% in size
# EXPERIMENTAL_CONDITIONS: CellTox Green fluorescence; series mostly up to 76.8 µM
Results filed as inconclusive are left out. Calls of active or inactive are those of the source. Calls follow the shape of the dose curve; as a rule, active = well fitted activation curve with a large enough effect in the repeat runs; inconclusive = weak or mixed curves; inactive = flat fitted curve, though single readings scatter.
Select the matching outcome among 1.0 (active), 0.0 (inactive)

Illustrative cases are given below, each with its answer.
INSERT INTO measurements (molecule, class_assignment) VALUES
  ('CC(CCc1ccc(O)cc1)NCCc1ccc(O)c(O)c1 (stereo unspecified)', 0.0),
  ('O=S(=O)(Cl)c1c(Cl)cccc1Cl', 0.0),
  ('O=[N+]([O-])C1(Br)COCOC1', 1.0),
  ('CNS(=O)(=O)c1cc(C(=O)N2CCC(CCN3C4CCC3CC(n3c(C)nc5ccccc53)C4)(c3cccc(F)c3)CC2)c(Cl)cc1F (stereo unspecified)', 0.0),
  ('CCC1CCC(CCC(=O)O)C1 (stereo unspecified)', 0.0);

QUERY: Which outcome was entered for the molecule `O=C(CCS)OCC(COC(=O)CCS)(COC(=O)CCS)COC(=O)CCS` in this test?
RESULT: 0.0

---

# PROTOCOL_DETAILS: A CellTox Green Cytotoxicity Assay to monitor cytotoxicity in HepG2 cells - 16 hour (AID 1224876); note: nearly all actives have a fitted effect of over 45% in size
# EXPERIMENTAL_CONDITIONS: CellTox Green fluorescence; series mostly up to 76.8 µM
# Text: National Center for Advancing Translational Sciences [NCATS] NIH Chemical Genomics Center [NCGC] U.S. Environmental Protection Agency [EPA] National Institutes of Environmental Health Sciences [NIEHS] National Toxicology Program [NTP] Cell-based models are critical for drug discovery. […] Viable cells produce no appreciable increases in fluorescence. Therefore, the fluorescence signal produced by the binding interaction with dead cell DNA is proportional to cytotoxicity. […]
Inconclusive results are not listed. The source made the active and inactive calls. Calls follow the shape of the dose curve; as a rule, active = well fitted activation curve with a large enough effect in the repeat runs; inconclusive = weak or mixed curves; inactive = flat fitted curve, though single readings scatter.
Select the matching outcome among 1 for active, -1 for inactive

Illustrative cases are given below, each with its answer.
INSERT INTO assay_data (smiles_data, class_assignment) VALUES
  ('Cc1ccc(Nc2c(F)cccc2Cl)c(CC(=O)O)c1', -1),
  ('CC(C)(O)CCc1ccccc1', -1),
  ('CC(C)Cc1ccc(CC(=O)O)cc1', 1);

QUERY: Which outcome was entered for the compound `Cc1cc(CCCOc2c(C)cc(-c3noc(C(F)(F)F)n3)cc2C)on1` in this test?
RESULT: -1

QUERY: Which outcome was entered for the compound `CCC(=O)OCc1ccc(OC)cc1` in this test?
RESULT: -1

---

# PROTOCOL_DETAILS: qHTS assay to identify small molecule antagonists of the estrogen receptor alpha (ER-alpha) signaling pathway using the BG1 cell line - cell viability counter screen (AID 743081);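 note: compound given together with 17beta-estradiol as the ER stimulus; nearly all actives have a fitted effect of over 45% in size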
# EXPERIMENTAL_CONDITIONS: BG1Luc4E2 viability, CellTiter-Fluor, 22 h; series mostly up to 70.3 µM
Results filed as inconclusive are left out. Calls of active or inactive are those of the source. The call rests on the fitted dose curve; in most records, active means well fitted cell-killing curve with a large enough effect in the repeat runs; inconclusive means weak or mixed curves, or effect the other way; inactive means flat fitted curve, though single readings scatter.
Select the matching outcome among active, inactive

INSERT INTO measurements (molecule, class_assignment) VALUES
  ('[Cl][Nd]([Cl])[Cl]', 'inactive'),
  ('CCNc1nc(N)nc(Cl)n1', 'inactive'),
  ('Cc1c(C2(c3cc(Br)c(O)c(Br)c3C)OS(=O)(=O)c3ccccc32)cc(Br)c(O)c1Br', 'active'),
  ('COc1ccc(C)cc1', 'inactive'),
  ('CC12CC3CC(C)(C1)CC(N)(C3)C2', 'inactive'),
  ('CCC(=O)OCc1ccc(OC)cc1', 'inactive'),
  ('Cc1ccc(N(CCO)CCO)cc1', 'inactive'),
  ('O=C(c1ccccc1)c1ccc(O)cc1', 'inactive');

QUERY: Which outcome was entered for the molecule `CC(CO)(CO)C(=O)O` in this test?
RESULT: inactive

QUERY: Which outcome was entered for the molecule `CC(C)c1ccc(C(=O)N=C(N)N)cc1S(C)(=O)=O` in this test?
RESULT: inactive

QUERY: Which outcome was entered for the molecule `NC(=O)c1ccccc1[N+](=O)[O-]` in this test?
RESULT: inactive

QUERY: Which outcome was entered for the molecule COc1cc(NC(C)CCCN)c2ncccc2c1 (centres undefined) in this test?
RESULT: active

QUERY: Which outcome was entered for the molecule COC(=O)CC(C(C)=O)C(=O)OC (centres undefined) in this test?
RESULT: inactive

QUERY: Which outcome was entered for the molecule `CCC(CO)(CO)[N+](=O)[O-]` in this test?
RESULT: inactive

---

# PROTOCOL_DETAILS: Caspase-3/7 induction in HepG2 cells by small molecules, qHTS cell viability counter screen (AID 1346981); note: nearly all actives have a fitted effect of over 30% in size
# EXPERIMENTAL_CONDITIONS: CellTiter-Fluor fluorescence, 17 h; series mostly up to 92.4 µM
Results filed as inconclusive are left out. The source made the active and inactive calls. Calls come from the whole dose curve; as a rule, active = well fitted cell-killing curve with a large enough effect in the repeat runs; inconclusive = weak or mixed curves, or effect the other way; inactive = flat fitted curve, though single readings scatter.
Select the matching outcome among active, inactive

Illustrative cases are given below, each with its answer.
INSERT INTO assay_data (molecule, class_assignment) VALUES
  ('CC[C@H]1OC(=O)[C@H](C)[C@@H](O[C@H]2C[C@@](C)(OC)[C@@H](O)[C@H](C)O2)[C@H](C)[C@@H](O[C@@H]2O[C@H](C)C[C@H](N(C)C)[C@H]2O)[C@](C)(O)C[C@@H](C)C(=O)[C@H](C)[C@@H](O)[C@]1(C)O', 'inactive'),
  ('CNC1CCCN(c2c(F)cc3c(=O)c(C(=O)O)cn(C4CC4)c3c2OC)C1 (stereo unspecified)', 'inactive');

QUERY: Which outcome was entered for the molecule `Oc1ccc2c(c1)Cc1ccccc1-2` in this test?
RESULT: inactive

QUERY: Which outcome was entered for the molecule `Cc1ccc(NC(=O)N(C)C)cc1NC(=O)N(C)C` in this test?
RESULT: inactive

QUERY: Which outcome was entered for the molecule `CCN(Cc1cccc(S(=O)(=O)O)c1)c1ccc(C(=C2C=CC(=[N+](CC)Cc3cccc(S(=O)(=O)O)c3)C=C2)c2ccc(O)cc2S(=O)(=O)[O-])cc1` in this test?
RESULT: active

QUERY: Which outcome was entered for the molecule `Cc1cccc2sc(N)nc12` in this test?
RESULT: inactive

QUERY: Which outcome was entered for the molecule `CC(C)(C(=O)c1cccnc1)c1cccnc1` in this test?
RESULT: inactive

QUERY: Which outcome was entered for the molecule `O=C1c2ccccc2C(=O)c2c(O)ccc(O)c21` in this test?
RESULT: inactive

QUERY: Which outcome was entered for the molecule `O=C(O)c1cc(Cl)cc(Cl)c1O` in this test?
RESULT: inactive

QUERY: Which outcome was entered for the molecule `CCN(CC)C(=O)/C(C#N)=C/c1cc(O)c(O)c([N+](=O)[O-])c1` in this test?
RESULT: active

QUERY: Which outcome was entered for the molecule COc1ccc(-n2nc(C(F)F)cc2-c2ccc(S(C)=O)cc2)cc1 (stereo unspecified) in this test?
RESULT: inactive

Where these numbers come from: PubChem BioAssay (Tox21)
